Values from paper PMC9271048

pIC50 reference
Target: ShHTL7 S95C (Striga hermonthica, UniProt A0A0M3PNA2, S95C)
Sequence (A0A0M3PNA2 whole entry S95C): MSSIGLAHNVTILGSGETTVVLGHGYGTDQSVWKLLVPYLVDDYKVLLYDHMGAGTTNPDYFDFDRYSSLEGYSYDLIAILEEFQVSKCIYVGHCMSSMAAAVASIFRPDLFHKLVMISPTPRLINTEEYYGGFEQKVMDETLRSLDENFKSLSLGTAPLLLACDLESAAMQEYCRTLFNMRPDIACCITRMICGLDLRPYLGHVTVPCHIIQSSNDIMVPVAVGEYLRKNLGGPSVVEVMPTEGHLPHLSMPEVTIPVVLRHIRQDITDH
Assay: YLG competitive inhibition, ShHTL7 mutant S95C
pIC50: −log10 of the molar value.

COMPOUND	pIC50
CC1=C[C@@H](OC(=O)N2CCN(C(=O)COc3ccc(Br)cc3C)CC2)OC1=O [(R)-4a]	4.36
CC1=C[C@H](OC(=O)N2CCN(C(=O)COc3ccc(Br)cc3C)CC2)OC1=O [(S)-4a]	6.53

* * *

Target: ShHTL7 (Striga hermonthica, UniProt A0A0M3PNA2)
Sequence (A0A0M3PNA2 entry or part of it): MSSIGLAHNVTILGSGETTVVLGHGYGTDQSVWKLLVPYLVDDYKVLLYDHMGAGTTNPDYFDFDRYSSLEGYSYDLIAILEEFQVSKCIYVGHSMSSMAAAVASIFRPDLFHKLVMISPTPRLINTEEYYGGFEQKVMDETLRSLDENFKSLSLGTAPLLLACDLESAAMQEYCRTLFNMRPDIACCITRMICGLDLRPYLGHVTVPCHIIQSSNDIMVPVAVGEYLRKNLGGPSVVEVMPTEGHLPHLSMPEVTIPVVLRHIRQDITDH
Experiment: Competitive inhibition of ShHTL7 with Yoshimulactone Green (YLG) as substrate
Format: biochemical
Conditions: YLG used as the substrate; means ± SD, n = 3; read-out: IC50 (Supplementary Table 1)
IC50 reference
PROPERTY NAME: IC50 (µM)

MOLECULE	STUDY SYSTEM	PROPERTY NAME	TEST VALUE
Cc1ccc(CCC(=O)N2CCN(CC3CC4C=CC3C4)CC2)cc1 (centres unmarked)	ShHTL7 (Striga hermonthica, UniProt A0A0M3PNA2)	IC50	34.2
O=C(COc1ccc([N+](=O)[O-])cc1)N1CCN(CC2CC3C=CC2C3)CC1 (centres unmarked)	ShHTL7 (Striga hermonthica, UniProt A0A0M3PNA2)	IC50	15.6
O=C(COc1ccccc1)N1CCN(CC2CC3C=CC2C3)CC1 (centres unmarked)	ShHTL7 (Striga hermonthica, UniProt A0A0M3PNA2)	IC50	18
O=C(c1ccc(F)cc1)N1CCN(CC2CC=CCC2)CC1 (centres unmarked)	ShHTL7 (Striga hermonthica, UniProt A0A0M3PNA2)	IC50	15.9
Cc1ccc(CC(=O)N2CCN(CC3CC4C=CC3C4)CC2)cc1 (centres unmarked)	ShHTL7 (Striga hermonthica, UniProt A0A0M3PNA2)	IC50	23.2
O=C(COc1cc(Cl)ccc1Cl)N1CCN(CC2CC3C=CC2C3)CC1 (centres unmarked)	ShHTL7 (Striga hermonthica, UniProt A0A0M3PNA2)	IC50	32.2
O=C(COc1ccc2ccccc2c1Br)N1CCN(CC2CC3C=CC2C3)CC1 (centres unmarked)	ShHTL7 (Striga hermonthica, UniProt A0A0M3PNA2)	IC50	6.12
Cc1cc(F)ccc1OCC(=O)N1CCN(CC2CC3C=CC2C3)CC1 (centres unmarked)	ShHTL7 (Striga hermonthica, UniProt A0A0M3PNA2)	IC50	10.7
